Test system: relapsed AML cells
measurement description: Drug sensitivity assay, 1,536-well, 3-day culture with individual approved drugs at 10 μM, viability by alamarBlue
Assay type: cell-based, human
conditions used: number of relapsed AML cases out of 18 tested with >70% cell death; 10 μM, 3-day culture
observation type: #Cases >70% cell death
Returns: the value as a bare number; no unit string appended.

molecule	#Cases >70% cell death
O=C(NC1CCNCC1)c1[nH]ncc1NC(=O)c1c(Cl)cccc1Cl	18

So, `Clc1ccccc1CN1CCc2sccc2C1` ? Its #Cases >70% cell death was 1

So, CN1CCOC(c2ccccc2)c2ccccc2C1 (centres unmarked) ? Its #Cases >70% cell death was 2

So, `O=c1[nH]c(=O)n([C@H]2C[C@H](O)[C@@H](CO)O2)cc1C(F)(F)F` ? Its #Cases >70% cell death was 6

So, `Clc1ccc2c(c1)CCc1cccnc1C2=C1CCNCC1` ? Its #Cases >70% cell death was 1
